Target: SARM1 (Homo sapiens)
Construct: clarified lysate used without purification
Sequence (Q6SZW1 with tags, fused parts or gaps): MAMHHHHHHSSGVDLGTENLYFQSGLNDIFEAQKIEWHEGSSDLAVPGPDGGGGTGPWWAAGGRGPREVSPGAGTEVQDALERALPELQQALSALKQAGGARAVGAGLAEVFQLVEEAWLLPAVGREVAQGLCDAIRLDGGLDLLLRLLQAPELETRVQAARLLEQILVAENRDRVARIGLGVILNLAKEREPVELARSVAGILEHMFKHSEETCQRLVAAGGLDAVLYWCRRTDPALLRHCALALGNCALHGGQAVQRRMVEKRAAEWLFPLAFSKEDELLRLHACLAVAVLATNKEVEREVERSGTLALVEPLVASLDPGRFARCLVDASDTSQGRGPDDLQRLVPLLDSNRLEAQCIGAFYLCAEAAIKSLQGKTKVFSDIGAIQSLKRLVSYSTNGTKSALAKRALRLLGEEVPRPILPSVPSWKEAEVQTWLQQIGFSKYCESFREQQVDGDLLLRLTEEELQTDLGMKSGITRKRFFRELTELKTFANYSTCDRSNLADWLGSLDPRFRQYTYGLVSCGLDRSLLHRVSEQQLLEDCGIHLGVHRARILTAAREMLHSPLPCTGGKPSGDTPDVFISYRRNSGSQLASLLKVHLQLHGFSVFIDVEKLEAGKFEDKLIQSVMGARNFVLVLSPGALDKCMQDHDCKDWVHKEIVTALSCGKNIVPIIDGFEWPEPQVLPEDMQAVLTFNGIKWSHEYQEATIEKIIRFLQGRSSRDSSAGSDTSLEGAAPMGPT
Assay: ARM-SAM-TIR SARM1 IC50 assay (NADase activity, NAD+ cleavage)
Settings: ARM-SAM-TIR lysate 5 μg/mL, 2 h pre-incubation, 5 μM NAD+, 2 hr room temperature, RapidFire mass spectrometry of NAD+ and ADPR
Description: This Example describes an assay of ARM-SAM-TIR NADase activity and use of this assay to measure the efficacy of compounds of Formula I/II to block SARM1 mediated NAD+ cleavage. […] The cultures were supplemented with 1 mM NR at time of transfection to minimize toxicity from ARM-SAM-TIR overexpression. […] Protein concentration was determined by the Bicinchoninic (BCA) method and used to normalize lysate concentrations. […]
pIC50: −log10 of the molar value.
Items are presented alongside their recorded pIC50.

N#Cc1ccc(CCC(=O)N2CCCc3c(-c4ccnnc4)n[nH]c32)cc1F: > 7.00
O=C(CCc1ccc(Cl)cc1)N1CCCc2c(-c3ccncc3)n[nH]c21: > 7.00

Ask: Can you share its pIC50? I mean this compound: O=C(CCc1ccc(Cl)c(F)c1)N1CCCc2c(-c3ccnnc3)n[nH]c21
Result: > 7.00

Ask: Can you check O=C(CCc1ccc(Cl)cc1)N1CCOc2c(-c3ccnnc3)n[nH]c21 next?
Result: > 7.00

Ask: Can you check O=C(CCc1ccc(Cl)c(F)c1)N1CCCc2c(-c3ccncc3)n[nH]c21 next?
Result: > 7.00

Ask: Can you check O=C(NCc1ccc(Cl)nc1)N1CCCc2c(-c3ccncc3)n[nH]c21 next?
Result: < 5.00

Ask: Can you check O=C(CCc1ccc(Cl)nc1)N1CCCc2c(-c3ccncc3)n[nH]c21 next?
Result: 6.00 to 7.00

Ask: Can you check O=C(CCc1ccc(Cl)cc1)N1CCCc2c(-c3ccnnc3)n[nH]c21 next?
Result: > 7.00

Ask: Can you check O=C(CCc1ccc(Cl)cc1)N1CCC(O)c2c(-c3ccncc3)n[nH]c21 (stereo not shown) next?
Result: > 7.00

Ask: Can you check N#Cc1ccc(CCC(=O)N2CCCc3c(-c4ccncc4)n[nH]c32)cc1F next?
Result: > 7.00
